System: SW480 cells
Test: Cytotoxicity assay, crystal violet staining
Assay type: cell-based
Conditions: Homo sapiens, SW480, 72 h, read-out: IC50 (concentration inhibiting 50% of the tumor proliferation)
pIC50: −log10 of the molar value.
readout-label: pIC50

In [3]: df
Out[3]:
                                   molecule  result
0  Oc1ccc(/C=C/c2cc(O)cc(O)c2)cc1 [RSV, trans 3,5,4′ trihydroxystilbene]   ~4.15

* * *

Test system: HCT116 cells
Test: Cytotoxicity assay, crystal violet staining
Format: cell-based
Details: Homo sapiens, HCT-116, HCT116, 72 h, read-out: IC50 (concentration inhibiting 50% of the tumor proliferation)
readout-label: IC50

In [3]: df
Out[3]:
                                   molecule  readout_label  result
0  Oc1ccc(/C=C/c2cc(O)cc(O)c2)cc1 [RSV, trans 3,5,4′ trihydroxystilbene]           IC50  ~25 µM
